The reported measurements were obtained from patent US20250340595A1.

targetUnderTest: Human TfR1 protein (R&D Systems, 2474-TR or Acro Biosystems, CD1-H5243) (human, UniProt P02786 89-760)
Sequence (P02786 89-760 limits assumed): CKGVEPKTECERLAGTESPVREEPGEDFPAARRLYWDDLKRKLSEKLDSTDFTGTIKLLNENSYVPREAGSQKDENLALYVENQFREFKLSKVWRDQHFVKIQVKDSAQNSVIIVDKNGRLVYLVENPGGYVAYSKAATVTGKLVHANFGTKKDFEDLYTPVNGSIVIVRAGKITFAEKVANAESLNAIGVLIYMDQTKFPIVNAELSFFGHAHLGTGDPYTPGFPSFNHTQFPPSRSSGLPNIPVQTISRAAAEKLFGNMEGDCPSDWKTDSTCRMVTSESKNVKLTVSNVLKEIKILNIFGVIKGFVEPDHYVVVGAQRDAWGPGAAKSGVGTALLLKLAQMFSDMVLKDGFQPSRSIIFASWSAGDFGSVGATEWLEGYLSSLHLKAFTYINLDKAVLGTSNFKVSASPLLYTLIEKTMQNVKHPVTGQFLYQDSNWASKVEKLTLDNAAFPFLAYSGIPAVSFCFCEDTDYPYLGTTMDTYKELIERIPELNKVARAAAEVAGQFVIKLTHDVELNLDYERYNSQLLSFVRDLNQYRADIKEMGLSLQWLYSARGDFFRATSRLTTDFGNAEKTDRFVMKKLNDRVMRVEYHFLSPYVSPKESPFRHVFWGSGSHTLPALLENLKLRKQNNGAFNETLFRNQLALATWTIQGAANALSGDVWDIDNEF
protocolDetails: FP competition, competitor BCY15768
Starred links: 1 amine or outer side, 2 acyl side, 3 side chain; linkers in the order of their positions; H or OH if unused. Positions of bridges follow the written chain, without caps; N, C: chain ends. Non-standard residues stand in square brackets, D forms with d. No end group written: not given here. TATB = O=C(C[*:1])N1CN(C(=O)C[*:2])CN(C(=O)C[*:3])C1; 2Nal = N[C@@H](Cc1ccc2ccccc2c1)C(=O)O
testReadout: Ki (nM)
Just the number please, in nM, no unit attached.

# annotated cases, reported Ki shown
ACPPDSWQGCISYCA (linker 2-10-14 via TATB) [BCY13989] : 565
WGKSCPIDAHLGCISYCA (linker 5-13-17 via TATB (inferred)) [BCY17116] : 75
Ac-CPPDAHLGCISWC-NH2 (linker 1-9-13 via TATB; SMILES CC[C@H](C)[C@@H]1NC(=O)[C@@H]2CSCC(=O)N3CN(CN(C3)C(=O)CSC[C@H](NC(C)=O)C(=O)N3CCC[C@H]3C(=O)N3CCC[C@H]3C(=O)N[C@@H](CC(=O)O)C(=O)N[C@@H](C)C(=O)N[C@@H](Cc3c[nH]cn3)C(=O)N[C@@H](CC(C)C)C(=O)NCC(=O)N2)C(=O)CSC[C@@H](C(N)=O)NC(=O)[C@H](Cc2c[nH]c3ccccc23)NC(=O)[C@H](CO)NC1=O) [BCY15889] : 40
TYMNCPPDAHLGCISYCA (linker 5-13-17 via TATB (inferred)) [BCY17117] : 37
ACPXDAHLGCISYCA (3 Cys on TATB; core as printed CP[Aib]DAHLGCISYC) [BCY16550] : 56

For reference, reported Ki for ACSPDAHLGCIS[2Nal]CA (linker 2-10-14 via TATB) [BCY16031] stands at 119

For reference, reported Ki for Ac-CSPDAHLGCISYCEPW-NH2 (linker 1-9-13 via TATB (inferred)) [BCY17994] stands at 8

For reference, reported Ki for NWNCSPDAHLGCISYC (3 Cys on TATB; N-terminal acetyl (Ac); [NMeTrp] in N-terminal extension) [BCY18036] stands at 90

For reference, reported Ki for ACSADDWLGCISYCA (linker 2-10-14 via TATB) [BCY15471] stands at 434

For reference, reported Ki for NWNCPXDAYLGCXSYC (3 Cys on TATB; core as printed CP[HyP]DAYLGC[tBuGly]SYC) [BCY18033] stands at 4
